- System: TNF-α
- protocol: Inhibition of TNF-α production by stimulated human peripheral blood leukocytes in vitro
- Assay type: cell-based
- measurement.parameters: Homo sapiens, Leukocyte, 50 μM; PMA-stimulated PBL; read-out: Percentage of inhibition of TNF-α production
Listing: inhibition at 50 µM of selected molecules
Give the number; % is assumed, so skip it.

CC[C@H]1OC(=O)[C@H](C)[C@@H](OC2C[C@@](C)(OC)[C@@H](OC(=O)CCN3CCNCC3)[C@H](C)O2)[C@H](C)[C@@H](OC2O[C@H](C)C[C@H](N(C)C)[C@H]2O)[C@](C)(OC)C[C@@H](C)C(=O)[C@H](C)[C@@H](O)[C@]1(C)O (some centres unmarked) [Example 50]	100

inhibition at 50 µM lookup needed for CC[C@H]1OC(=O)[C@H](C)[C@@H](O[C@H]2C[C@@](C)(OC)[C@@H](OC(=O)CCN(CC)CC)[C@H](C)O2)[C@H](C)[C@@H](O[C@@H]2O[C@H](C)C[C@H](N(C)C)[C@H]2O)[C@](C)(O)C[C@@H](C)CN(C)[C@H](C)[C@H]2OC(=O)O[C@@]21C [Example 1] , thanks.
94

* * *

- System: IL-8
- protocol: Inhibition of IL-8 production by stimulated human peripheral blood leukocytes in vitro
- Assay type: cell-based
- measurement.parameters: Homo sapiens, Leukocyte, 50 μM; PMA-stimulated PBL; read-out: Percentage of inhibition of IL-8 production
inhibition at 50 µM vs 20%: at or above is 1, below is 0.

These solved cases illustrate the format of a correct answer.
CC[C@H]1OC(=O)[C@H](C)[C@@H](O[C@H]2C[C@@](C)(OC)[C@@H](OC(=O)CCN(C)C3CCCCC3)[C@H](C)O2)[C@H](C)[C@@H](O[C@@H]2O[C@H](C)C[C@H](N(C)C)[C@H]2O)[C@](C)(OC)C[C@@H](C)C(=O)N[C@H](C)[C@@H](O)[C@]1(C)O [Example 25]	1
CC[C@H]1OC(=O)[C@H](C)[C@@H](O[C@H]2C[C@@](C)(OC)[C@@H](OC(=O)CCN(CC)CC)[C@H](C)O2)[C@H](C)[C@@H](O[C@@H]2O[C@H](C)C[C@H](N(C)C)[C@H]2O)[C@](C)(O)C[C@@H](C)CN(C)[C@H](C)[C@H]2OC(=O)O[C@@]21C [Example 1]	1
CC[C@H]1OC(=O)[C@H](C)[C@@H](O[C@H]2C[C@@](C)(OC)[C@@H](OC(=O)CCN(C)CCN(CC)CC)[C@H](C)O2)[C@H](C)[C@@H](O[C@@H]2O[C@H](C)C[C@H](N(C)C)[C@H]2O)[C@](C)(OC)C[C@@H](C)C(=O)N[C@H](C)[C@@H](O)[C@]1(C)O [Example 21]	1
CC[C@H]1OC(=O)[C@H](C)[C@@H](O[C@H]2C[C@@](C)(OC)[C@@H](OC(=O)CCN(CC)CC)[C@H](C)O2)[C@H](C)[C@@H](O[C@@H]2O[C@H](C)C[C@H](NC)[C@H]2O)[C@](C)(OC)C[C@@H](C)C(=O)N[C@H](C)[C@@H](O)[C@]1(C)O [Example 54]	1
CC[C@H]1OC(=O)[C@H](C)[C@@H](O[C@H]2C[C@@](C)(OC)[C@@H](OCCCN(CC)CC)[C@H](C)O2)[C@H](C)[C@@H](O[C@@H]2O[C@H](C)C[C@H](N(C)C)[C@H]2O)[C@](C)(O)C[C@@H](C)CN(C)[C@H](C)[C@@H](O)[C@]1(C)O [Example 96]	0

Would you say CC[C@H]1OC(=O)[C@H](C)[C@@H](O[C@H]2C[C@@](C)(OC)[C@@H](OC(=O)CCNC(C)C)[C@H](C)O2)[C@H](C)[C@@H](O[C@@H]2O[C@H](C)C[C@H](N(C)C)[C@H]2O)[C@](C)(OC)C[C@@H](C)C(=O)N[C@H](C)[C@@H](O)[C@]1(C)O [Example 23] shows inhibition at 50 µM at minimum 20%?
0

Decide: is the reported value of inhibition at 50 µM for CC[C@H]1OC(=O)[C@H](C)[C@@H](O[C@H]2C[C@@](C)(OC)[C@@H](OC(=O)CCN3CC(C)CC(C)C3)[C@H](C)O2)[C@H](C)[C@@H](O[C@@H]2O[C@H](C)C[C@H](N(C)C)[C@H]2O)[C@](C)(OC)C[C@@H](C)C(=O)N[C@H](C)[C@@H](O)[C@]1(C)O (stereo partly drawn) [Example 37] equal to or greater than 20%?
0

Tell me whether inhibition at 50 µM is at least 20% here: CC[C@H]1OC(=O)[C@H](C)[C@@H](O[C@H]2C[C@@](C)(OC)[C@@H](OC(=O)CCN3CCN(CCCN4CCCCC4)CC3)[C@H](C)O2)[C@H](C)[C@@H](O[C@@H]2O[C@H](C)C[C@H](N(C)C)[C@H]2O)[C@](C)(OC)C[C@@H](C)C(=O)N[C@H](C)[C@@H](O)[C@]1(C)O [Example 22]
0

# check: inhibition at 50 µM of C=CC(=O)OC1[C@H](C)O[C@@H](O[C@H]2[C@H](C)[C@@H](O[C@@H]3O[C@H](C)C[C@H](NC)[C@H]3O)[C@](C)(OC)C[C@@H](C)C(=O)N[C@H](C)[C@@H](O)[C@](C)(O)[C@@H](CC)OC(=O)[C@@H]2C)C[C@@]1(C)OC (stereo partly drawn) [Example 53] is greater than or equal to 20%
1

* * *

# inhibition at 50 µM values compiled below
- Test system: IL-6
- protocol: Inhibition of IL-6 production by stimulated human peripheral blood leukocytes in vitro
- Type: cell-based
- measurement.parameters: Homo sapiens, Leukocyte, 50 μM; LPS-stimulated PBL; read-out: Percentage of inhibition of IL-6 production
Give the number; % is assumed, so skip it.

CC[C@H]1OC(=O)[C@H](C)[C@@H](O[C@H]2C[C@@](C)(OC)[C@@H](OC(=O)CCN(C)CCO)[C@H](C)O2)[C@H](C)[C@@H](O[C@@H]2O[C@H](C)C[C@H](N(C)C)[C@H]2O)[C@](C)(OC)C[C@@H](C)C(=O)N[C@H](C)[C@@H](O)[C@]1(C)O	93
CC[C@H]1OC(=O)[C@H](C)[C@@H](O[C@H]2C[C@@](C)(OC)[C@@H](OC(=O)CCN3CCN(CCOCCO)CC3)[C@H](C)O2)[C@H](C)[C@@H](O[C@@H]2O[C@H](C)C[C@H](N(C)C)[C@H]2O)[C@](C)(OC)C[C@@H](C)C(=O)N[C@H](C)[C@@H](O)[C@]1(C)O	23
CC[C@H]1OC(=O)[C@H](C)[C@@H](O[C@H]2C[C@@](C)(OC)[C@@H](OCCCN)[C@H](C)O2)[C@H](C)[C@@H](O[C@@H]2O[C@H](C)C[C@H](N(C)C)[C@H]2O)[C@](C)(O)C[C@@H](C)CN(C)[C@H](C)[C@H]2OC(=O)O[C@@]21C [Example 51C]	0

Let us move to another entry and its inhibition at 50 µM.
Fill in the recorded inhibition at 50 µM for this compound, with IL-6 as test system: CC[C@H]1OC(=O)[C@H](C)C(O[C@H]2C[C@@](C)(OC)[C@@H](OC(=O)CCN(CC)CC)[C@H](C)O2)[C@H](C)[C@@H](O[C@@H]2O[C@H](C)C[C@H](N(C)C)[C@H]2O)[C@](C)(OC)C[C@@H](C)C(=O)[C@H](C)[C@H](O)[C@]1(C)O (stereo partly shown)
99

* * *

- Tested on: TNF-α
- protocol: Inhibition of TNF-α production by stimulated human peripheral blood leukocytes in vitro
- Format: cell-based
- measurement.parameters: Homo sapiens, Leukocyte, 50 μM; PMA-stimulated PBL; read-out: Percentage of inhibition of TNF-α production
# inhibition at 50 µM listing for each entry below
State just the number; it will be interpreted in %.

CC[C@H]1OC(=O)[C@H](C)[C@@H](O[C@H]2C[C@@](C)(OC)[C@@H](OC(=O)CCN3CCN(CC4CCCN(C)C4)CC3)[C@H](C)O2)[C@H](C)[C@@H](O[C@@H]2O[C@H](C)C[C@H](N(C)C)[C@H]2O)[C@](C)(OC)C[C@@H](C)C(=O)N[C@H](C)[C@@H](O)[C@]1(C)O (some centres unmarked) [Example 33]	74

# ---- query compound ----
Return inhibition at 50 µM measured with TNF-α given this compound: CC[C@H]1OC(=O)[C@H](C)[C@@H](O[C@H]2C[C@@](C)(OC)[C@@H](OC(=O)CCN(CC)CC)[C@H](C)O2)[C@H](C)[C@@H](O[C@@H]2O[C@H](C)C[C@H](N(C)C)[C@H]2O)[C@](C)(OC)C[C@@H](C)C(=O)[C@H](C)[C@H]2NC(=O)O[C@@]21C [Example 9]
85
